Target: fMet-Leu-Phe receptor (Homo sapiens, UniProt P21462)
Sequence (P21462 whole entry): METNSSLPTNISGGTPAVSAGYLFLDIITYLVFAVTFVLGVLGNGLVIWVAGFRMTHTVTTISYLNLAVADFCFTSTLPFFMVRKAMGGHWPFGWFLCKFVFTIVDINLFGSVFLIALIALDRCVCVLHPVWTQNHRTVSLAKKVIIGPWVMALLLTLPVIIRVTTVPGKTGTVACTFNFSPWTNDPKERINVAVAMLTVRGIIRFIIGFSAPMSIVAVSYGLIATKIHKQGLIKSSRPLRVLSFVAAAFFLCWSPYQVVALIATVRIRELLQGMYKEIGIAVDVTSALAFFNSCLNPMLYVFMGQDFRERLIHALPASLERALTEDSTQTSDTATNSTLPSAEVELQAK
Experiment: Antagonist activity at formyl peptide receptor in human HL60 cells assessed as inhibition of intracellular calcium mobilization incubated for 5 mins prior to fMLP challenge by Fura-2 method
measurement kind: Kd (nM)

>  <entry smiles>
CC(C)C[C@@H](NC(=O)[C@H](Cc1ccccc1)NC(=O)[C@@H](CC(C)C)NC(=O)[C@H](Cc1ccccc1)NC(=O)OC(C)(C)C)C(=O)N[C@@H](Cc1ccc(OC(C)(C)C)cc1)C(=O)O

>  <target of assay>
fMet-Leu-Phe receptor (Homo sapiens, UniProt P21462)

>  <Kd (nM)>
68

$$$$

(1) CC(C)C[C@@H](NC(=O)[C@H](Cc1ccccc1)NC(=O)[C@@H](CC(C)C)NC(=O)[C@H](Cc1ccc(OC(C)(C)C)cc1)NC(=O)OC(C)(C)C)C(=O)N[C@@H](Cc1ccccc1)C(=O)O
(2) CC(C)C[C@@H](NC(=O)[C@H](C)NC(=O)OC(C)(C)C)C(=O)N[C@@H](Cc1ccccc1)C(=O)N[C@H](CC(C)C)C(=O)N[C@@H](Cc1ccccc1)C(=O)O
// query Just curious, which one has the larger Kd reading, 1 or 2 ? Identify your selection by its label.
// result 2
(2: 170 nM, 1: 62 nM)

====

Target: fMet-Leu-Phe receptor (Homo sapiens)
Assay: Antagonist activity at formyl peptide receptor in human HL60 cells assessed as inhibition of intracellular calcium mobilization incubated for 5 mins prior to fMLP challenge by Fura-2 method
pKd: −log10 of the molar value.
measurement kind: pKd

>  <entry smiles>
CC(C)C[C@@H](NC(=O)[C@H](Cc1ccccc1)NC(=O)[C@@H](CC(C)C)NC(=O)[C@@H](NC(=O)OC(C)(C)C)[C@@H](C)OC(C)(C)C)C(=O)N[C@@H](Cc1ccccc1)C(=O)O

>  <target of assay>
fMet-Leu-Phe receptor (Homo sapiens)

>  <numeric readout>
6.85

$$$$
>  <entry smiles>
CC(C)C[C@H](NC(=O)[C@@H](CC(C)C)NC(=O)[C@H](Cc1ccccc1)NC(=O)OC(C)(C)C)C(=O)N[C@H](CC(C)C)C(=O)N[C@@H](Cc1ccccc1)C(=O)O

>  <target of assay>
fMet-Leu-Phe receptor (Homo sapiens)

>  <numeric readout>
6.70

$$$$
>  <entry smiles>
CC(C)C[C@@H](NC(=O)[C@H](Cc1ccccc1)NC(=O)[C@@H](CC(C)C)NC(=O)[C@H](Cc1ccccc1)NC(=O)OC(C)(C)C)C(=O)N[C@@H](Cc1ccc(C(=O)c2ccccc2)cc1)C(=O)O

>  <target of assay>
fMet-Leu-Phe receptor (Homo sapiens)

>  <numeric readout>
6.82

$$$$

(A) CC(C)C[C@H](NC(=O)[C@@H](CC(C)C)NC(=O)[C@H](Cc1ccccc1)NC(=O)[C@@H](CC(C)C)NC(=O)[C@H](Cc1ccccc1)NC(=O)OC(C)(C)C)C(=O)O
(B) CC(C)C[C@@H](NC(=O)[C@H](Cc1ccccc1)NC(=O)[C@@H](CC(C)C)NC(=O)[C@H](CCCCN)NC(=O)OC(C)(C)C)C(=O)N[C@@H](Cc1ccccc1)C(=O)O
// query From the items above, decide which of A and B has the lower pKd reading. Identify your pick by its label.
// result B
